study.system: T1, human PACAP38 (human, not fully specified; C-terminal lysine is amidated; N-terminal or C-terminal biotin in the HTRF and PC-12 cell binding assays)
T1 construct: synthetic peptide, bought; also called huPACAP (1-38)
T1 peptide: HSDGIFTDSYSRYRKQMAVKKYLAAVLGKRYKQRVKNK
experiment: SPR, Ab immobilised
measured.quantity: kon (M⁻¹ s⁻¹)
Give the quantity in M⁻¹ s⁻¹, number only.

anti-PACAP antibody Ab15 (antibody, human IgG1, kappa, N297A, V domains shown, full-length rabbit/human chimeric antibody) VH: QSVEASGGHLVTPGTPLTLTCTVSGFSLSSAAMNWVRQAPGKGLEWIGSVDERQNKYYASWAKGRFTISRTSSTTVNLKMTSPTTEDTATYFCARGGGEFFIWGQGTLVTVSS VL: AQVLTQTPSSVSAAVGGTVTINCQSSQSVYSNNRLSWYQQKPGQPPNLLIYEASSLASGVPSRFSGSGSGTQFTLTISDLECDDAATYYCAGAYNTGIYGFGGGTEVVVKR = 530000

Turning now to a further binder:
Look up kon: anti-PACAP antibody Ab9.H (antibody, human IgG1, kappa, N297A, V domains shown, humanized form of Ab9, full length) VH: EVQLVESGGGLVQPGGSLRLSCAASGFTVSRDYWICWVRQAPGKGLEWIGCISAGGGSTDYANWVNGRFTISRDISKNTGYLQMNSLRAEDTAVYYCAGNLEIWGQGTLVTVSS VL: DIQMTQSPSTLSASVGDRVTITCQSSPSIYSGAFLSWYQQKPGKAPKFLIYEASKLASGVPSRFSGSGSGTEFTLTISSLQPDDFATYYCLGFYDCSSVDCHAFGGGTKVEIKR
1e+06
